- test-system: mMC5R (Mus musculus, UniProt P41149)
- Sequence (P41149 whole entry): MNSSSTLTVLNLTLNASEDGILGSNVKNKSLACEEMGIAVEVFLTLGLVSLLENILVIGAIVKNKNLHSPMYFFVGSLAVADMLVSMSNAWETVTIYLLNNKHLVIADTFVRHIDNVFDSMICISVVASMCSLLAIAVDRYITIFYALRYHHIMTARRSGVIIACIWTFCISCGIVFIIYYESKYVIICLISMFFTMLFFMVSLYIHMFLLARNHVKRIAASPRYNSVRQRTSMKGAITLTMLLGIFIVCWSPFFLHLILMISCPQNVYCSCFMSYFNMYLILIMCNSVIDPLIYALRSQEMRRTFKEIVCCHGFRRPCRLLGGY
- measurement-description: CRE/β-galactosidase reporter gene bioassay, agonist activity at mMC5R
- Assay type: cell-based
- settings: less potent than 1
Square brackets hold non-standard residues; d marks the D form. Peptide text beside a SMILES is read from it. dPhe(4-I) = N[C@H](Cc1ccc(I)cc1)C(=O)O; 3Pal = N[C@@H](Cc1cccnc1)C(=O)O
property: mMC5R fold less potent than peptide 1 (fold)

{"columns": ["compound", "property", "reported"],
 "data": [
  ["CC(=O)N[C@@H](Cc1cccnc1)C(=O)N[C@H](Cc1ccc(I)cc1)C(=O)N[C@@H](CCCNC(=N)N)C(=O)N[C@@H](Cc1c[nH]c2ccccc12)C(N)=O [Peptide 12, Ac-3PAL-(pI)DPhe-Arg-Trp-NH2] (Ac-[3Pal][dPhe(4-I)]RW-NH2)", "mMC5R fold less potent than peptide 1", 3300]
]}

====

- test-system: mMC4R (Mus musculus, UniProt P56450)
- Sequence (P56450 whole entry): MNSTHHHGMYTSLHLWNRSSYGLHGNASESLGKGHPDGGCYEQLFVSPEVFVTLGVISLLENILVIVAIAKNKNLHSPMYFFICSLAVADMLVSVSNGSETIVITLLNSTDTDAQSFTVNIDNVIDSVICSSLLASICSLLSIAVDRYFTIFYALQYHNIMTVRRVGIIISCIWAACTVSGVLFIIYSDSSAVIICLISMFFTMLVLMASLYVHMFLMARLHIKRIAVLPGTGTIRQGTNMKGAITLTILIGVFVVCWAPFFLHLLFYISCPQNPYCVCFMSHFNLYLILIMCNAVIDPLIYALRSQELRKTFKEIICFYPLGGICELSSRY
- measurement-description: Antagonist Schild analysis against agonist MTII at mMC4R
- Assay type: cell-based
Square brackets hold non-standard residues; d marks the D form. Peptide text beside a SMILES is read from it. Bip = N[C@@H](Cc1ccc(-c2ccccc2)cc1)C(=O)O; dPhe(4-I) = N[C@H](Cc1ccc(I)cc1)C(=O)O; Bta = N[C@@H](Cc1csc2ccccc12)C(=O)O

{"columns": ["compound", "Kb, µM"],
 "data": [
  ["CC(=O)N[C@@H](Cc1c[nH]cn1)C(=O)N[C@H](Cc1ccc(I)cc1)C(=O)N[C@@H](CCCNC(=N)N)C(=O)N[C@@H](Cc1ccc(-c2ccccc2)cc1)C(N)=O [Peptide 29, Ac-His-(pI)DPhe-Arg-Bip-NH2] (Ac-H[dPhe(4-I)]R[Bip]-NH2)", 0.0398],
  ["CC(=O)N[C@@H](Cc1c[nH]c2ccccc12)C(=O)N[C@H](Cc1ccc(I)cc1)C(=O)N[C@@H](CCCNC(=N)N)C(=O)N[C@@H](Cc1c[nH]c2ccccc12)C(N)=O [Peptide 13, Ac-Trp-(pI)DPhe-Arg-Trp-NH2] (Ac-W[dPhe(4-I)]RW-NH2)", 0.00501],
  ["CC(=O)N[C@@H](Cc1c[nH]cn1)C(=O)N[C@H](Cc1ccc(I)cc1)C(=O)N[C@@H](CCCNC(=N)N)C(=O)N[C@@H](Cc1csc2ccccc12)C(N)=O [Peptide 30, Ac-His-(pI)DPhe-Arg-3Bal-NH2] (Ac-H[dPhe(4-I)]R[Bta]-NH2)", 0.01],
  ["CC(=O)N[C@@H](Cc1ccc(-c2ccccc2)cc1)C(=O)N[C@H](Cc1ccc(I)cc1)C(=O)N[C@@H](CCCNC(=N)N)C(=O)N[C@@H](Cc1c[nH]c2ccccc12)C(N)=O [Peptide 17, Ac-Bip-(pI)DPhe-Arg-Trp-NH2] (Ac-[Bip][dPhe(4-I)]RW-NH2)", 0.0794]
]}

====

Below: a set of entries, each annotated with reported EC50.
- test-system: mMC5R (Mus musculus, UniProt P41149)
- measurement-description: CRE/β-galactosidase reporter gene bioassay, agonist activity at mMC5R
- Assay type: cell-based
Square brackets hold non-standard residues; d marks the D form. Peptide text beside a SMILES is read from it. Bip = N[C@@H](Cc1ccc(-c2ccccc2)cc1)C(=O)O; dBip = N[C@H](Cc1ccc(-c2ccccc2)cc1)C(=O)O
property: EC50 (nM)

{"columns": ["compound", "test-system", "reported"],
 "data": [
  ["CC(=O)N[C@@H](Cc1c[nH]cn1)C(=O)N[C@H](Cc1ccc(-c2ccccc2)cc1)C(=O)N[C@@H](CCCNC(=N)N)C(=O)N[C@@H](Cc1ccc(-c2ccccc2)cc1)C(N)=O [Peptide 33, Ac-His-DBip-Arg-Bip-NH2] (Ac-H[dBip]R[Bip]-NH2)", "mMC5R (Mus musculus, UniProt P41149)", 31.2],
  ["CC(=O)N[C@@H](Cc1c[nH]cn1)C(=O)N[C@H](Cc1ccc(-c2ccccc2)cc1)C(=O)N[C@@H](CCCNC(=N)N)C(=O)N[C@H](Cc1ccc(-c2ccccc2)cc1)C(N)=O [Peptide 35, Ac-His-DBip-Arg-DBip-NH2] (Ac-H[dBip]R[dBip]-NH2)", "mMC5R (Mus musculus, UniProt P41149)", 42]
]}

====

- test-system: mMC5R (Mus musculus)
- measurement-description: CRE/β-galactosidase reporter gene bioassay, agonist activity at mMC5R
- Assay type: cell-based
- settings: comparisons are to reference peptide 1
Square brackets hold non-standard residues; d marks the D form. Peptide text beside a SMILES is read from it. * marks the point of attachment. Bip = N[C@@H](Cc1ccc(-c2ccccc2)cc1)C(=O)O; Octanoyl = CCCCCCCC(=O)*
property: mMC5R pharmacology in words

{"columns": ["compound", "reported"],
 "data": [
  ["CCCCCCCC(=O)N[C@@H](Cc1c[nH]cn1)C(=O)N[C@H](Cc1ccccc1)C(=O)N[C@@H](CCCNC(=N)N)C(=O)N[C@@H](Cc1ccc(-c2ccccc2)cc1)C(N)=O [Peptide 2, Octanoyl-His-DPhe-Arg-Bip-NH2] (Octanoyl-H[dF]R[Bip]-NH2)", "decreased potencies"],
  ["CCCCCCCC(=O)N[C@H](Cc1c[nH]cn1)C(=O)N[C@H](Cc1ccccc1)C(=O)N[C@@H](CCCNC(=N)N)C(=O)N[C@@H](Cc1c[nH]c2ccccc12)C(N)=O [Peptide 9, Octanoyl-DHis-DPhe-Arg-Trp-NH2]", "decreased potencies"]
]}

====

- test-system: UniProt Q01727
- Sequence (Q01727 whole entry): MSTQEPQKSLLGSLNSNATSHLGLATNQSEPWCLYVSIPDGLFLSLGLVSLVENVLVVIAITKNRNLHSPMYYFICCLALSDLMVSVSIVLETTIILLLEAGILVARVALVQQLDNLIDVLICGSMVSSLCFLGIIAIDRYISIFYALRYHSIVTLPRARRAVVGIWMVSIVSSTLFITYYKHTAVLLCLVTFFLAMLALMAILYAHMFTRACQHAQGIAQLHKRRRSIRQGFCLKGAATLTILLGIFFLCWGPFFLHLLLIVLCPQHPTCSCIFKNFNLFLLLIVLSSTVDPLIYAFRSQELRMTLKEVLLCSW
- measurement-description: CRE/β-galactosidase reporter gene bioassay, agonist activity at mMC1R
- Assay type: cell-based
- settings: comparisons are to reference peptide 1
Square brackets hold non-standard residues; d marks the D form. Peptide text beside a SMILES is read from it. * marks the point of attachment. Bip = N[C@@H](Cc1ccc(-c2ccccc2)cc1)C(=O)O; dBip = N[C@H](Cc1ccc(-c2ccccc2)cc1)C(=O)O; dPhe(4-I) = N[C@H](Cc1ccc(I)cc1)C(=O)O; 2Nal = N[C@@H](Cc1ccc2ccccc2c1)C(=O)O; Bta = N[C@@H](Cc1csc2ccccc12)C(=O)O; Tic = O=C(O)[C@@H]1Cc2ccccc2CN1; 2Thi = N[C@@H](Cc1cccs1)C(=O)O; Octanoyl = CCCCCCCC(=O)*

{"columns": ["compound", "test-system", "mMC1R pharmacology in words"],
 "data": [
  ["CC(=O)N[C@@H](Cc1cccs1)C(=O)N[C@H](Cc1ccc(I)cc1)C(=O)N[C@@H](CCCNC(=N)N)C(=O)N[C@@H](Cc1c[nH]c2ccccc12)C(N)=O [Peptide 14, Ac-2Thi-(pI)DPhe-Arg-Trp-NH2] (Ac-[2Thi][dPhe(4-I)]RW-NH2)", "UniProt Q01727", "equipotent"],
  ["CC(=O)N[C@@H](Cc1c[nH]cn1)C(=O)N[C@H](Cc1ccc(-c2ccccc2)cc1)C(=O)N[C@@H](CCCNC(=N)N)C(=O)N[C@@H](Cc1csc2ccccc12)C(N)=O [Peptide 34, Ac-His-DBip-Arg-3Bal-NH2] (Ac-H[dBip]R[Bta]-NH2)", "UniProt Q01727", "more potent"],
  ["CCCCCCCC(=O)N[C@@H](Cc1c[nH]cn1)C(=O)N[C@H](Cc1ccccc1)C(=O)N[C@@H](CCCNC(=N)N)C(=O)N[C@H](Cc1ccc(-c2ccccc2)cc1)C(N)=O [Peptide 8, Octanoyl-His-DPhe-Arg-DBip-NH2] (Octanoyl-H[dF]R[dBip]-NH2)", "UniProt Q01727", "equipotent"],
  ["CC(=O)N[C@@H](Cc1c[nH]cn1)C(=O)N[C@H](Cc1ccc(-c2ccccc2)cc1)C(=O)N[C@@H](CCCNC(=N)N)C(=O)N[C@@H](Cc1ccc2ccccc2c1)C(N)=O [Peptide 36, Ac-His-DBip-Arg-Nal(2’)-NH2] (Ac-H[dBip]R[2Nal]-NH2)", "UniProt Q01727", "more potent"],
  ["CCCCCCCC(=O)N[C@@H](Cc1c[nH]c2ccccc12)C(=O)N[C@H](Cc1ccccc1)C(=O)N[C@@H](CCCNC(=N)N)C(=O)N[C@@H](Cc1c[nH]c2ccccc12)C(N)=O [Peptide 10, Octanoyl-Trp-DPhe-Arg-Trp-NH2] (Octanoyl-W[dF]RW-NH2)", "UniProt Q01727", "equipotent"],
  ["CCCCCCCC(=O)N[C@@H](Cc1c[nH]cn1)C(=O)N[C@H](Cc1ccccc1)C(=O)N[C@@H](CCCNC(=N)N)C(=O)N[C@@H](Cc1ccc(-c2ccccc2)cc1)C(N)=O [Peptide 2, Octanoyl-His-DPhe-Arg-Bip-NH2] (Octanoyl-H[dF]R[Bip]-NH2)", "UniProt Q01727", "equipotent"],
  ["CC(=O)N[C@@H](Cc1c[nH]cn1)C(=O)N[C@H](Cc1ccc(I)cc1)C(=O)N[C@@H](CCCNC(=N)N)C(=O)N1Cc2ccccc2C[C@H]1C(N)=O [Peptide 31, Ac-His-(pI)DPhe-Arg-Tic-NH2] (Ac-H[dPhe(4-I)]R[Tic]-NH2)", "UniProt Q01727", "more potent"],
  ["CC(=O)N[C@@H](Cc1c[nH]cn1)C(=O)N[C@H](Cc1ccc(-c2ccccc2)cc1)C(=O)N[C@@H](CCCNC(=N)N)C(=O)N[C@@H](Cc1ccc(-c2ccccc2)cc1)C(N)=O [Peptide 33, Ac-His-DBip-Arg-Bip-NH2] (Ac-H[dBip]R[Bip]-NH2)", "UniProt Q01727", "more potent"]
]}

All values here come from paper PMC6261661.
